molecular target: human TRPV1 (Homo sapiens, UniProt Q8NER1); assay: Functional assay: block of capsaicin-induced Ca2+ influx, human assay (FLIPR, hTRPV1/HEK293); details: hTRPV1/HEK293 cells, 150 nM capsaicin challenge, mean; > value = solubility limit in assay medium
Sequence (Q8NER1 whole entry): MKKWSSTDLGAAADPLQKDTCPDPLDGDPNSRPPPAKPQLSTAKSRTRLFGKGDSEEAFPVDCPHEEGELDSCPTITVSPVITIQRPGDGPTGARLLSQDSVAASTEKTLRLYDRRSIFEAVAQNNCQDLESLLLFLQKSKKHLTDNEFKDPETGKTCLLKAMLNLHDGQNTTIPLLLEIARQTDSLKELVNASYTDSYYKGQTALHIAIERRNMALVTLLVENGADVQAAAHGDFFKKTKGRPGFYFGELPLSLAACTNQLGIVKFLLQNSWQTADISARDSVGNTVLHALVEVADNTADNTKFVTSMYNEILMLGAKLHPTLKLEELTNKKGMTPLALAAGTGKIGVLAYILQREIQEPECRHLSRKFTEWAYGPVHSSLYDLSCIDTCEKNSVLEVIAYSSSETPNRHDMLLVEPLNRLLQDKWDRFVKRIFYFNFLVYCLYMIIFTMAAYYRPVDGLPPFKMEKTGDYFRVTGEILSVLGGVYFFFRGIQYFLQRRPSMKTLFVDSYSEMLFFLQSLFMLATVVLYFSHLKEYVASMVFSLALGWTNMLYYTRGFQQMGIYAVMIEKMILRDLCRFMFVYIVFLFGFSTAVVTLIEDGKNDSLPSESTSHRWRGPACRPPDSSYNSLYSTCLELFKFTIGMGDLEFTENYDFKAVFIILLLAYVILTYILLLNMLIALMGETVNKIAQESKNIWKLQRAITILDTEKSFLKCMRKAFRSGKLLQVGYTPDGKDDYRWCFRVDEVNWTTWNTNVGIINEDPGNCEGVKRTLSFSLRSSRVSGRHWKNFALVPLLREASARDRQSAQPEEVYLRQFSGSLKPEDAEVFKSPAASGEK
quantity.measured: IC50 (µM)

test.smiles | quantity.measured | assay.result
Cc1nc(Nc2ccc(C(F)(F)F)cc2)c2nc(Nc3c(Cl)cccc3Cl)[nH]c2n1 | IC50 | 0.029

A: CC(C)(C)c1ccc(Nc2ncnc3[nH]c(Nc4c(Cl)cccc4Cl)nc23)cc1
B: FC(F)(F)c1ccc(Nc2ncnc3[nH]c(Nc4c(Cl)cccc4Cl)nc23)cc1
Param pair: A , B . Output: the one whose IC50 is numerically greater. In your reply, give the label of the chosen option.
B
(B: 0.017 µM, A: 0.0023 µM)

a: FC(F)(F)c1ccc(Nc2ncnc3[nH]c(Nc4ccccc4C(F)(F)F)nc23)cc1
b: CS(=O)(=O)c1ccc(Nc2ncnc3[nH]c(Nc4c(Cl)cccc4Cl)nc23)cc1
c: Cn1c(Nc2c(Cl)cccc2Cl)nc2c(Nc3ccc(C(F)(F)F)cc3)ncnc21
Exam item: list the entries in increasing order of IC50. Answer by listing the labels in the requested order.
b, c, a

I: FC(F)(F)c1ccc(Nc2ncnc3[nH]c(Nc4ccccc4C(F)(F)F)nc23)cn1
II: Clc1cccc(Cl)c1Nc1nc2c(Nc3ccccc3)ncnc2[nH]1
Endpoint returns whichever of I and II has the numerically higher IC50. Use the label to indicate which entry you chose.
II

Origin of values: patent US20090156598A1
